- TARGET ENTITY: human mGluR5a receptors (Homo sapiens (Human), UniProt P41594)
- Sequence (P41594 other isoform, or with tags, fused parts or gaps): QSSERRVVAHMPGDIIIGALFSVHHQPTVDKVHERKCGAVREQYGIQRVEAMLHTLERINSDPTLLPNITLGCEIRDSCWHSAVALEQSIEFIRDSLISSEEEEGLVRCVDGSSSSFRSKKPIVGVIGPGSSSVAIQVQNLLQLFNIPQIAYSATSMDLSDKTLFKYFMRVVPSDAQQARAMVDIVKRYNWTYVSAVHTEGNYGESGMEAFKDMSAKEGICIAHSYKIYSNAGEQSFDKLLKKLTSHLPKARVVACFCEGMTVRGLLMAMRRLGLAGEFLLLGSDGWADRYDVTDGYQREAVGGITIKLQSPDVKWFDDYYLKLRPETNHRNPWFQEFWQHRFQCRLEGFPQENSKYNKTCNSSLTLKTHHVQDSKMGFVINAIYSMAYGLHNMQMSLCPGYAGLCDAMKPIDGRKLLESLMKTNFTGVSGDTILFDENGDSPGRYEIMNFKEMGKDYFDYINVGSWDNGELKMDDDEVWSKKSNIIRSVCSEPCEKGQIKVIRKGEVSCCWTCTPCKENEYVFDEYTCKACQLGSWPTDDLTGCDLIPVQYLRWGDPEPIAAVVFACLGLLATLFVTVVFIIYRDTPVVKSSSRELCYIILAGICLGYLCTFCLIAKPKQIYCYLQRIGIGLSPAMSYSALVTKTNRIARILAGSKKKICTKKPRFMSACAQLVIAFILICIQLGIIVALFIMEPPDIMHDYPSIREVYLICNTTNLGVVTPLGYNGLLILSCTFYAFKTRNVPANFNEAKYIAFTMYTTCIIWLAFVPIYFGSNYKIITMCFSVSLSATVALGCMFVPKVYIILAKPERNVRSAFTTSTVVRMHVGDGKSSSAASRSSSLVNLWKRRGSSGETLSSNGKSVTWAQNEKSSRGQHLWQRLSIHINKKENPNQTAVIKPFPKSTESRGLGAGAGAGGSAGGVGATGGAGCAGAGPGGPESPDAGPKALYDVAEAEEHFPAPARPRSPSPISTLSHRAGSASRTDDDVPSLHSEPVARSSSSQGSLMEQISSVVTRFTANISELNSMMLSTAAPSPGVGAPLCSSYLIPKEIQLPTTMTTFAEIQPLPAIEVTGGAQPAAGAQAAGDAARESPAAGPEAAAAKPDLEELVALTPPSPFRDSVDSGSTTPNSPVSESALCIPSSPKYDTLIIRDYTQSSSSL
- EXPERIMENT DESCRIPTION: inhibition of glutamate-induced elevation of intracellular calcium in L(tk-) cells expressing human mGluR5a
- SETTINGS: glutamate-induced intracellular calcium elevation, L(tk-) cells expressing human mGluR5a; read-out: mGluR5 IC50
Flag rule - IC50 less than 90 nM flags 1.0; the remaining entries get 0.0.

>>> group_label("COc1cccc2c1CCN1C(=O)CN=C(c3cccc(C(F)(F)F)c3)C=C21 [Example 16]")
0.0
>>> group_label("O=C1CN=C(n2cnc(C3CC3)c2)C=C2c3cccc(-c4cnc(F)nc4)c3CCN12 [Example 99f]")
0.0
>>> group_label("CO[C@H](C)c1cn(C2=NCC(=O)N3CCc4c(C5CC5)ccc(F)c4C3=C2)cn1 [Example 99j]")
1.0
>>> group_label("O=C1CN=C(n2cnc(Cl)c2)C=C2c3cccc(-c4cncc(F)c4)c3CCN12 [Example 83]")
0.0
>>> group_label("C=C(C)c1cccc2c1CCN1C(=O)CN=C(n3cnc([C@H](C)OC)c3)C=C21 [Example 119]")
1.0
>>> group_label("COC(C)c1cccc2c1CCN1C(=O)CN=C(c3ccn(C)n3)C=C21 (stereo not shown) [Example 47]")
1.0
>>> group_label("Cc1cn(C2=NCC(=O)N3CCc4c(I)cccc4C3=C2)c(C)n1 [Example 67]")
0.0
>>> group_label("COC(=O)c1cn(C2=NCC(=O)N3CCc4c(I)cccc4C3=C2)cn1 [Example 66]")
0.0
>>> group_label("Cc1ncn(C2=NCC(=O)N3CCc4c(ccc(F)c4-c4cccnc4F)C3=C2)n1 [Example 99r]")
0.0
>>> group_label("CO[C@H](C)c1cn(C2=NCC(=O)N3CCc4c(cccc4C4CC4)C3=C2)cn1 [Example 123]")
1.0
>>> group_label("CC(C)c1cn(C2=NCC(=O)N3CCc4c(cccc4-c4cnn(C)c4)C3=C2)cn1 [Example 72]")
0.0
>>> group_label("Cc1cn(C2=NCC(=O)N3CCc4c(cccc4-c4cnc(C)o4)C3=C2)cn1 [Example 99a]")
1.0
>>> group_label("COCCc1cn(C2=NCC(=O)N3CCc4c(cccc4-c4cscn4)C3=C2)cn1 [Example 76]")
1.0
>>> group_label("O=C1CN=C(n2cnc(CO)c2)C=C2c3cccc(I)c3CCN12 [Example 65]")
0.0
>>> group_label("O=C1CN=C(n2cnc(-c3cnco3)c2)C=C2c3cccc(C4CC4)c3CCN12 [Example 123a]")
1.0
>>> group_label("COc1cccc2c1CCN1C(=O)CN=C(c3ccnc(N(C)C)c3)C=C21 [Example 21]")
0.0
>>> group_label("O=C1CN=C(n2cnc(C3CC3)c2)C=C2c3ccnc(-c4ccc(F)nc4)c3CCN12 [Example 110]")
0.0
>>> group_label("CC(C)(C)c1cn(C2=NCC(=O)N3CCc4c(cccc4C4CCCO4)C3=C2)cn1 (stereo not shown) [Example 112]")
0.0
>>> group_label("O=C1CN=C(n2cnc(C3(O)CC3)c2)C=C2c3cccc(C4CC4)c3CCN12 [Example 127]")
1.0
>>> group_label("COc1cccc(C2=NCC(=O)N3CCc4c(Cl)cccc4C3=C2)c1 [Example 3]")
0.0
>>> group_label("COCc1cn(C2=NCC(=O)N3CCc4c(cccc4-c4cscn4)C3=C2)cn1 [Example 101]")
1.0
>>> group_label("Cc1cn(C2=NCC(=O)N3CCc4c(cccc4-c4coc(C)n4)C3=C2)cn1 [Example 108c]")
0.0
>>> group_label("CC(=O)c1cccc2c1CCN1C(=O)CN=C(n3cnc(C)c3)C=C21 [Example 116]")
0.0
>>> group_label("COc1cccc(C2=NCC(=O)N3CCc4c(cccc4N4CCOCC4)C3=C2)c1 [Example 41]")
1.0
>>> group_label("Cc1cc(-c2cccc3c2CCN2C(=O)CN=C(n4cnc(C5CC5)c4)C=C32)sn1 [Example 103]")
1.0
>>> group_label("COc1cc(C2=NCC(=O)N3CCc4c(cccc4-c4ccc(F)nc4)C3=C2)ccn1 [Example 53]")
1.0
>>> group_label("O=C1CN=C(n2cnc(C3CC3)n2)C=C2c3cccc(-c4cc(F)ccn4)c3CCN12 [Example 135]")
0.0
>>> group_label("COCc1cn(C2=NCC(=O)N3CCc4c(cccc4C(C)(C)C)C3=C2)cn1 [Example 125]")
0.0
